Cited source for all entries: patent US11370762B2

- assayedSystem: IDO1 enzyme in Hela cells (Homo sapiens)
- Construct: endogenous in cells; host or cells: HeLa cells stimulated with human recombinant IFN-γ
- testDetails: Inhibition of IDO1 enzyme in IFN-γ stimulated Hela cells (kynurenine read at 480 nm)
- Assay type: cell-based
- conditionSummary: 10 μmol compound; IFN-γ stimulated Hela cells, 48 hours; read-out: Inhibition rate (%) 10 μmol
Reported values of inhibition at 10 µM for individual entries

Some entries whose results are on file:
# compound, observedProperty, recordedValue
data = [
    ("CCCCN(CCCC)c1ccc(/C(C)=C/C(=O)O)cc1NC(=O)Cc1ccccc1F [Compound 779]", "inhibition at 10 µM", "100%"),
    ("CCCCN(CCCC)c1ccc(/C(C)=C/C(=O)OCC)cc1NC(=O)Nc1ccc(Cl)c(C(F)(F)F)c1 [Compound 1024]", "inhibition at 10 µM", "58.2%"),
    ("CCCCN(CCCC)c1ccc(/C(C)=C/C(=O)OCC)cc1NC(=O)Cc1ccccc1F [Compound 772]", "inhibition at 10 µM", "100%"),
]

Let me know recorded inhibition at 10 µM for CCCCN(CCCC)c1ccc(/C(C)=C/C(=O)OCC)cc1NC(=O)Nc1ccc(Cl)cc1 [Compound 1023] , thanks.
100%

Let me know recorded inhibition at 10 µM for CCCCN(CCCC)c1ccc(/C(C)=C\C(=O)O)cc1NC(=O)Nc1ccc(C)cc1F [Compound 14] , thanks.
100%

Let me know recorded inhibition at 10 µM for CCCCN(CCCC)c1ccc(/C(C)=C/C(=O)OCC)cc1NC(=S)Nc1ccccc1 [Compound 1025] , thanks.
68.8%

Let me know recorded inhibition at 10 µM for CCOC(=O)/C=C(\C)c1ccc(N(CC(C)C)CC(C)C)c(NC(=O)Nc2ccc(F)cc2F)c1 [Compound 564] , thanks.
100%

Let me know recorded inhibition at 10 µM for CCCCN(CCCC)c1ccc(/C(C)=C\C(=O)O)cc1NC(=O)Nc1ccc(F)cc1F [Compound 13] , thanks.
100%

* * *

- assayedSystem: IDO1 enzyme in Hela cells (Homo sapiens, UniProt P14902)
- Construct: endogenous in cells; host or cells: HeLa cells stimulated with human recombinant IFN-γ
- Sequence (P14902 whole entry): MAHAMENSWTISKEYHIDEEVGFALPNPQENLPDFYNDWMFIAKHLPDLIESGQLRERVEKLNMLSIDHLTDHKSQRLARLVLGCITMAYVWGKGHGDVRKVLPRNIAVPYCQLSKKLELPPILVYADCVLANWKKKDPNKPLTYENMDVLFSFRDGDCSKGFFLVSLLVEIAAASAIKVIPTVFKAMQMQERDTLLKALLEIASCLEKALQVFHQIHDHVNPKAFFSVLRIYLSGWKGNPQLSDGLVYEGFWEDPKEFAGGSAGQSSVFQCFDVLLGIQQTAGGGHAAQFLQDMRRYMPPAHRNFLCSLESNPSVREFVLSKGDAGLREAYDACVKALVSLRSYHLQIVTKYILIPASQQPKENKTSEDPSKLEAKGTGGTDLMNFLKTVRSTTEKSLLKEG
- testDetails: Inhibition of IDO1 enzyme in IFN-γ stimulated Hela cells (kynurenine read at 480 nm)
- Type: cell-based
- conditionSummary: 100 nmol compound; IFN-γ stimulated Hela cells, 48 hours; read-out: Inhibition rate (%) 100 nmol
observedProperty: inhibition at 0.1 µM (%)
Kindly provide the numeric value in % only, without the unit symbol.

Some entries whose results are on file:
# querySmiles, recordedValue
measured = [
    ("CCCCN(CCCC)c1ccc(/C(C)=C/C(=O)OCC)cc1NC(=O)Nc1ccc(Cl)c(C(F)(F)F)c1", 29.5),
    ("CCCCN(CCCC)c1ccc(/C(C)=C/C(=O)OCC)cc1NC(=O)Nc1ccccc1Cl", 42.1),
    ("CCCCN(CCCC)c1ccc(/C(C)=C\\C(=O)O)cc1NC(=O)Nc1ccc(C)cc1F", 100),
    ("CCCCN(CCCC)c1ccc(/C(C)=C/C(=O)O)cc1NC(=O)Nc1cccc(Cl)c1", 41.5),
]

Let me know recorded inhibition at 0.1 µM for CCCCN(CCCC)c1ccc(/C(C)=C/C(=O)OCC)cc1NC(=O)Nc1ccc(Cl)cc1 , thanks.
35.1

Let me know recorded inhibition at 0.1 µM for CCCCN(CCCC)c1ccc(/C(C)=C/C(=O)O)cc1NC(=O)Nc1ccc(Cl)c(C(F)(F)F)c1 , thanks.
23.8

Let me know recorded inhibition at 0.1 µM for CCCCN(CCCC)c1ccc(/C(C)=C/C(=O)OCC)cc1NC(=S)Nc1ccccc1 , thanks.
24.6

Let me know recorded inhibition at 0.1 µM for CCCCN(CCCC)c1ccc(/C(C)=C\C(=O)O)cc1NC(=O)Nc1ccc(F)cc1F , thanks.
100

Let me know recorded inhibition at 0.1 µM for CCCCN(CCCC)c1ccc(/C(C)=C/C(=O)OCC)cc1NC(=O)Nc1cccc(Cl)c1 , thanks.
21.2

Let me know recorded inhibition at 0.1 µM for CCCCN(CCCC)c1ccc(/C(C)=C/C(=O)O)cc1NC(=O)Nc1ccccc1Cl , thanks.
71.1

Let me know recorded inhibition at 0.1 µM for CCOC(=O)/C=C(\C)c1ccc(N(CC(C)C)CC(C)C)c(NC(=O)Nc2ccc(F)cc2F)c1 , thanks.
72.2

Let me know recorded inhibition at 0.1 µM for CCCCN(CCCC)c1ccc(/C(C)=C/C(=O)OCC)cc1NC(=O)Cc1ccccc1F , thanks.
74.2

Let me know recorded inhibition at 0.1 µM for CCCCN(CCCC)c1ccc(/C(C)=C/C(=O)O)cc1NC(=O)Cc1ccccc1F , thanks.
77.1

Let me know recorded inhibition at 0.1 µM for CCCCN(CCCC)c1ccc(/C(C)=C/C(=O)OCC)cc1NC(=O)Nc1cccc(C)c1 , thanks.
21

Let me know recorded inhibition at 0.1 µM for CCCCN(CCCC)c1ccc(/C(C)=C/C(=O)O)cc1NC(=S)Nc1ccccc1 , thanks.
29.6

* * *

- testDetails: Oral pharmacokinetic test of compound 55 in rats
- Assay type: in vivo
- conditionSummary: male, Sprague-Dawley, plasma, rat, 30 mg/kg
observedProperty: half-life

Let me know recorded half-life for C/C(=C/C(=O)O)c1ccc(N(CC(C)C)CC(C)C)c(NC(=O)Nc2ccc(F)cc2F)c1 , thanks.
5 h

* * *

- assayedSystem: IDO1 enzyme in Hela cells (Homo sapiens)
- Construct: endogenous in cells
- testDetails: Inhibition of IDO1 enzyme in IFN-γ stimulated Hela cells (kynurenine read at 480 nm)
- conditionSummary: Hela cells; read-out: Inhibition rate IC50 (nmol/L) on IDO1 enzyme activity in Hela cells
observedProperty: pIC50
Hey, just a heads up that pIC50 is the negative log base 10 of the concentration in molar.

Some entries whose results are on file:
# molecule, pIC50
data = [
    ("CCCCN(CCCC)c1ccc(/C(C)=C\\C(=O)O)cc1NC(=O)Nc1ccc(C)cc1F [Compound 14]", 9.74),
    ("C/C(=C/C(=O)O)c1ccc(N(CC(C)C)CC(C)C)c(NC(=O)Nc2ccc(C)cc2)c1 [Compound 51]", 8.43),
    ("C/C(=C/C(=O)O)c1ccc(N(CC(C)C)CC(C)C)c(NC(=O)Nc2ccc(C)cc2F)c1 [Compound 56]", 9.89),
    ("C/C(=C/C(=O)O)c1ccc(N(CC(C)C)CC(C)C)c(NC(=O)Nc2ccc(F)cc2F)c1 [Compound 55]", 10.05),
    ("CCCCN(CCCC)c1ccc(/C(C)=C\\C(=O)O)cc1NC(=O)Nc1ccc(F)cc1F [Compound 13]", 8.43),
]

Alright, here's another molecule for you.
Let me know recorded pIC50 for CCCCN(CCCC)c1ccc(/C(C)=C/C(=O)O)cc1NC(=O)Nc1ccc(C)cc1F [Compound 530] , thanks.
8.08

* * *

- testDetails: Oral pharmacokinetic test of compound 55 in rats
- Type: in vivo
- conditionSummary: male, Sprague-Dawley, plasma, rat, 30 mg/kg
- Method: Pharmacokinetic Test and Results of Compound 55: 12 Male Sprague-Dawley rats were grouped random. The final concentration of compound 55 was 1.5 mg/ml. The drug was dissolved in a solvent system of 10% DMSO, 10% hydrogenated castor oil and […] (compounds were dissolved by DMSO, hydrogenated castor oil and saline in turn by vortex or ultrasound), and the drug solution was given orally (30 mg/kg). […]
observedProperty: AUC (ng·h/mL)
Kindly provide the numeric value in ng·h/mL only, without the unit symbol.

Let me know recorded AUC for C/C(=C/C(=O)O)c1ccc(N(CC(C)C)CC(C)C)c(NC(=O)Nc2ccc(F)cc2F)c1 , thanks.
43700

* * *

Reported values of inhibition at 10 µM for individual entries
- assayedSystem: IDO1 enzyme in Hela cells (Homo sapiens)
- Construct: endogenous in cells; host or cells: HeLa cells stimulated with human recombinant IFN-γ
- testDetails: Inhibition of IDO1 enzyme in IFN-γ stimulated Hela cells (kynurenine read at 480 nm)
- Type: cell-based
- conditionSummary: 10 μmol compound; IFN-γ stimulated Hela cells, 48 hours; read-out: Inhibition rate (%) 10 μmol
Kindly provide the numeric value in % only, without the unit symbol.

Some entries whose results are on file:
# querySmiles, assayedSystem, uom, recordedValue
data = [
    ("CCCCN(CCCC)c1ccc(/C(C)=C/C(=O)O)cc1NC(=O)Nc1cccc(Cl)c1", "IDO1 enzyme in Hela cells (Homo sapiens)", "%", 100),
    ("CCCCN(CCCC)c1ccc(/C(C)=C/C(=O)OCC)cc1NC(=O)Nc1cccc(C)c1", "IDO1 enzyme in Hela cells (Homo sapiens)", "%", 54.3),
]

Give inhibition at 10 µM for CCCCN(CCCC)c1ccc(/C(C)=C/C(=O)O)cc1NC(=S)Nc1ccccc1 tested on IDO1 enzyme in Hela cells (Homo sapiens).
72.7
